System: CP297
assay_protocol: qHTS profiling for inhibitors of Plasmodium falciparum proliferation (AID 504749); note: nearly all actives have a fitted effect of over 60% in size
experimental_conditions: P. falciparum in erythrocytes, SYBR Green DNA, 72 h; series mostly up to 28.7 µM
Records with an inconclusive call do not appear. Calls of active or inactive are those of the source. Calls come from the whole dose curve; as a rule, active = well fitted inhibition curve with a large enough effect; inconclusive = small, poorly fitted or top-dose-only effect; inactive = flat fitted curve, though single readings scatter.
In this exercise, the only acceptable responses are 1.0 (active), 0.0 (inactive)

Prompt line: # fetch the recorded call for `CN1C(=O)OC(C)(C)C1=O` here
Response line: 0.0

Prompt line: # fetch the recorded call for `Cc1ncc(C[n+]2csc(CCO)c2C)c(N)n1` here
Response line: 0.0

Prompt line: # fetch the recorded call for `Cc1ncc(C[n+]2csc(CCOP(=O)(O)O)c2C)c(N)n1` here
Response line: 0.0

Prompt line: # fetch the recorded call for `CN=C1C=CC(=C(c2ccc(N(C)C)cc2)c2ccc(N(C)C)cc2)C=C1` here
Response line: 1.0

Prompt line: # fetch the recorded call for `CCCOC(=O)c1ccccc1O` here
Response line: 0.0

Prompt line: # fetch the recorded call for `NC(=O)C1c2ccccc2CCc2ccccc21` here
Response line: 0.0

Prompt line: # fetch the recorded call for CCOC(=O)C1=C(COCCN)NC(C)=C(C(=O)OC)C1c1ccccc1Cl (configuration not stated) here
Response line: 0.0

Prompt line: # fetch the recorded call for `CC(=O)Nc1ccc(OC(C)=O)cc1` here
Response line: 0.0

Prompt line: # fetch the recorded call for `CC/C(=C(/CC)c1ccc(OP(=O)(O)O)cc1)c1ccc(OP(=O)(O)O)cc1` here
Response line: 0.0

Prompt line: # fetch the recorded call for `N#Cc1ccc2c(c1)N(CCCN1CCC(O)CC1)c1ccccc1S2` here
Response line: 0.0

Prompt line: # fetch the recorded call for `COc1ccc(-c2noc(CC(=O)O)c2-c2ccc(OC)cc2)cc1` here
Response line: 0.0

Prompt line: # fetch the recorded call for O=S(=O)(O)CC(S)CS (configuration not stated) here
Response line: 0.0

Prompt line: # fetch the recorded call for C=CC(C)(O)CC/C=C(\C)CCC=C(C)C (configuration not stated) here
Response line: 0.0

Prompt line: # fetch the recorded call for COc1cc(S(C)=O)ccc1-c1nc2ncccc2[nH]1 (configuration not stated) here
Response line: 0.0

Prompt line: # fetch the recorded call for `CC1(C)S[C@@H]2[C@H](NC(=O)C3(N)CCCCC3)C(=O)N2[C@H]1C(=O)O` here
Response line: 0.0

Prompt line: # fetch the recorded call for `Cn1c(=O)c2c(ncn2CCOC(=O)C(C)(C)Oc2ccc(Cl)cc2)n(C)c1=O` here
Response line: 0.0

Prompt line: # fetch the recorded call for COC(=O)C(CN)c1c[nH]c2ccc(OC)cc12 (configuration not stated) here
Response line: 0.0

Prompt line: # fetch the recorded call for `OCCCNc1ccccc1` here
Response line: 0.0

Prompt line: # fetch the recorded call for `O=C(O)c1ccc(OCCn2ccnc2)cc1` here
Response line: 0.0

Prompt line: # fetch the recorded call for O=C(NCCNCC(O)COc1ccc(O)cc1)N1CCOCC1 (configuration not stated) here
Response line: 0.0

Prompt line: # fetch the recorded call for `CCN(CC)CCC(=O)N1c2ccccc2Sc2ccc(C(F)(F)F)cc21` here
Response line: 0.0

Prompt line: # fetch the recorded call for `Cc1ncc(C[n+]2csc(CCOP(=O)(O)OP(=O)(O)O)c2C)c(N)n1` here
Response line: 0.0

Prompt line: # fetch the recorded call for `CC(=O)Oc1cccc(C(=O)O)c1OC(C)=O` here
Response line: 0.0

Prompt line: # fetch the recorded call for `Cc1cc(-c2ccc(N=Nc3ccc4c(S(=O)(=O)O)cc(S(=O)(=O)O)c(N)c4c3O)c(C)c2)ccc1N=Nc1ccc2c(S(=O)(=O)O)cc(S(=O)(=O)O)c(N)c2c1O` here
Response line: 0.0

Prompt line: # fetch the recorded call for `CCCCO` here
Response line: 0.0

Prompt line: # fetch the recorded call for `Cc1cc(=O)c(C(=O)N[C@@H](C(=O)N[C@@H]2C(=O)N3C(C(=O)O)=C(CSc4nnnn4C)CS[C@H]23)c2ccc(O)cc2)c[nH]1` here
Response line: 0.0

Prompt line: # fetch the recorded call for `N=C(N)n1cccn1` here
Response line: 0.0

Prompt line: # fetch the recorded call for `NC(=S)NS(=O)(=O)c1ccc(N)cc1` here
Response line: 0.0

Prompt line: # fetch the recorded call for `O=C1c2ccccc2C(=O)C1c1ccc(Cl)cc1` here
Response line: 0.0

Prompt line: # fetch the recorded call for `COc1ccc(/C=N/NC(=O)c2ccncc2)c(C(=O)O)c1OC` here
Response line: 0.0

Prompt line: # fetch the recorded call for `O=C(O)CCC/C=C\C[C@@H]1[C@@H](/C=C/[C@@H](O)COc2cccc(C(F)(F)F)c2)[C@H](O)C[C@@H]1O` here
Response line: 0.0

Prompt line: # fetch the recorded call for `CN[C@@H]1[C@H](O[C@H]2[C@H](O[C@H]3[C@H](O)[C@@H](O)[C@H](N=C(N)N)[C@@H](O)[C@@H]3N=C(N)N)O[C@@H](C)[C@]2(O)C=O)O[C@@H](CO)[C@H](O)[C@H]1O` here
Response line: 0.0

Prompt line: # fetch the recorded call for CC12CCC(C1)C(C)(C)C2=O (configuration not stated) here
Response line: 0.0

Prompt line: # fetch the recorded call for `COC(=O)CC[C@H](N)C(=O)O` here
Response line: 0.0

Prompt line: # fetch the recorded call for `OCC(O)CO` here
Response line: 0.0

Prompt line: # fetch the recorded call for `O=c1[nH]c(=O)n([C@H]2C[C@H](O)[C@@H](CO)O2)cc1/C=C/Br` here
Response line: 0.0

Prompt line: # fetch the recorded call for `C[C@H](N)C(=O)N[C@@H](C)P(=O)(O)O` here
Response line: 0.0

Prompt line: # fetch the recorded call for `Nc1ncnc2c1ncn2CCOCP(=O)(O)O` here
Response line: 0.0

Prompt line: # fetch the recorded call for `CCCCCCCCCCCCOCCCN` here
Response line: 0.0

Prompt line: # fetch the recorded call for CC1CC(OC(=O)C(O)c2ccccc2)CC(C)(C)C1 (configuration not stated) here
Response line: 0.0

Prompt line: # fetch the recorded call for `Cc1ccc(S(=O)(=O)NCl)cc1` here
Response line: 0.0

Prompt line: # fetch the recorded call for `CC(=O)Oc1cc(C(F)(F)F)ccc1C(=O)O` here
Response line: 0.0

Prompt line: # fetch the recorded call for `C#C[C@]1(O)CC[C@@H]2[C@H]3CCC4=CC(=O)CC[C@H]4[C@H]3C(=C)C[C@@]21CC` here
Response line: 1.0

Prompt line: # fetch the recorded call for CC1=CCC2CC1C2(C)C (configuration not stated) here
Response line: 0.0

Prompt line: # fetch the recorded call for `CC(C)c1ncc([N+](=O)[O-])n1C` here
Response line: 0.0

Prompt line: # fetch the recorded call for O=C(OC1C[C@@H]2CC3C[C@H](C1)N2CC3=O)c1c[nH]c2ccccc12 (some centres not stated) here
Response line: 0.0

Prompt line: # fetch the recorded call for `Cc1nc(NS(=O)(=O)c2ccc(N)cc2)nc(C)c1Br` here
Response line: 0.0
